- ASSAY_SYSTEM: HIF prolyl hydroxylase
- PROCEDURE_DETAILS: Inhibition of the activity of HIF prolyl hydroxylase (VBC complex binding test)
- Format: biochemical
- CONDITION_SUMMARY: cell lysate containing prolyl hydroxylase
# IC50 per record follows
ENDPOINT_NAME: IC50 (nM)

- O=c1c(-n2ccnn2)c[nH]n1-c1cc(N2CCN(C3CCC3)CC2)ncn1: 880
- O=C(O)C1CN(c2cc(-n3[nH]cc(-n4ccnc4)c3=O)ncn2)C1: 540
- N#Cc1cn(-c2c[nH]n(-c3cc(N4CCCOCC4)ncn3)c2=O)nn1: 380
- N#Cc1cn(-c2c[nH]n(-c3cc(N4CCC(F)(F)C4)ncn3)c2=O)nn1: 130
